Cited source: the supplement of paper PMC11208160

- procedure_summary: recombinant UMI read abundance after kanamycin selection (control-corrected) (log10(CPM+1)); higher = more efficient recombination; extreme values may be limits of the assay; sequences stand for … in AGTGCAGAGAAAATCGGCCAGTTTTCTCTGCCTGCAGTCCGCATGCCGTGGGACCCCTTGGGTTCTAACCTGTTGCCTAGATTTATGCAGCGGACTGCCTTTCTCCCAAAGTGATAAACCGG…AGGTTGGTTTCACT; site = the 11-nt donor;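 note: IS621 bridge recombinase in Escherichia coli cells against a fixed T5 target plasmid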
recombinant UMI read abundance (log10) reference
property_label: recombinant UMI read abundance (log10)

sequence_text="AGCTCAGCATGGACCGGTTTTCCCGGTAATCCGTATTTGAG (site AGCTCAGCTCA)" reading=0.0132
sequence_text="AATCCATCATGGACCGGTTTTCCCGGTAATCCGTATTTGAT (site AATCCATCTAT)" reading=0.288
sequence_text="TGCAGTGCATGGACCGGTTTTCCCGGTAATCCGTATTTGTT (site TGCAGTGCTAA)" reading=0.416
sequence_text="CAGCCGACATGGACCGGTTTTCCCGGTAATCCGTATTTGGG (site CAGTCGACTCC)" reading=0.00469
sequence_text="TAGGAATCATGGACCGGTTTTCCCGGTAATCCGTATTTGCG (site TAGGACTCTCG)" reading=0.892
sequence_text="TGTTGTTCATGGACCGGTTTTCCCGGTAATCCGTATTTGAA (site TGTTGTTCTTT)" reading=0.472
sequence_text="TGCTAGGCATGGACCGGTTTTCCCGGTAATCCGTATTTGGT (site TGCTATGCTAC)" reading=0.00951
sequence_text="TACTGGACATGGACCGGTTTTCCCGGTAATCCGTATTTGCT (site TACTCGACTAG)" reading=0.188
sequence_text="TCGGGTACATGGACCGGTTTTCCCGGTAATCCGTATTTGAC (site TCGGGTACTGT)" reading=0
sequence_text="ATCCAACCATGGACCGGTTTTCCCGGTAATCCGTATTTGAG (site ATCCAACCTCT)" reading=0
sequence_text="GATTGGCCATGGACCGGTTTTCCCGGTAATCCGTATTTGCA (site GATTGGCCTTG)" reading=0.00508
sequence_text="TGTGCCACATGGACCGGTTTTCCCGGTAATCCGTATTTGTT (site TGTGCCACTAA)" reading=0.0457
sequence_text="CTACCATCATGGACCGGTTTTCCCGGTAATCCGTATTTGCT (site CGATCATCTAG)" reading=0
sequence_text="AGAAAGGCATGGACCGGTTTTCCCGGTAATCCGTATTTGCG (site AGAAAGGCTGG)" reading=0
sequence_text="GTTCGATCATGGACCGGTTTTCCCGGTAATCCGTATTTGCA (site GTTCGAACTTG)" reading=0
sequence_text="AATTAATCATGGACCGGTTTTCCCGGTAATCCGTATTTGAT (site AATTAATCTAT)" reading=1.47
sequence_text="TCATACTCATGGACCGGTTTTCCCGGTAATCCGTATTTGCA (site TCATACTCTCG)" reading=0.514
sequence_text="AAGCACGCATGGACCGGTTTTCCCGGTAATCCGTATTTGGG (site AAGCCCGCTCC)" reading=0.0231
